Recorded values, source the RNAGym collection of RNA variant scans (doi:10.7554/elife.80360).

# maps each entry to its self-cleavage
B1: HDV Ribozyme (parent)
chain: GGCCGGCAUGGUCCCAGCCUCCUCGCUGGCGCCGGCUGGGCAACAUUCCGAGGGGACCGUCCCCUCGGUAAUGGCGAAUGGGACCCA

Variants of: B1
assay-remarks: self-cleavage, relative activity (ratio to wild type); higher = more cleavage; co-transcriptional

// known answers, use as guide
C44A U65G    0.85
C7A C14A    0.123
C21G G74A    0.0511
C41G G53A    0.485
U46C G76U    1.23

The measured self-cleavage associated with G34U A56U reads 0.18

The measured self-cleavage associated with A43U A77C reads 0.0519
